test name: in vitro
condition description: human, hela cells, % viability
Please respond with reported viability at 28.5 h, 10 µM for every item in the list.
Mention the unit after the number when you answer.

Look at this molecule and give its reported viability at 28.5 h, 10 µM. Nc1ncc(-c2cccc(Br)c2)nc1NC1CCOCC1
108%

Fill in: viability at 28.5 h, 10 µM of Cc1cccc(C(=O)N2CCN(Cc3nc4ccccc4[nH]3)CC2)c1 is ___
90.2%

Tell me the measured viability at 28.5 h, 10 µM of CN(C(=O)CN1CCN(c2cc(-c3cccc4oc5ccccc5c34)ncn2)CC1)c1ccccc1 , please.
97.8%

Dear colleague, I am looking for the recorded viability at 28.5 h, 10 µM of the following molecule: COc1ccccc1NS(=O)(=O)c1ccc(N2C[C@@H](C)N[C@@H](C)C2)c2ccccc12 [CBK200012C]
85.3%

Entry under review: CN(CC(=O)Nc1cncc(OC2CCNCC2)n1)C(=O)c1ccccc1 [CBK028440T] . Reported viability at 28.5 h, 10 µM?
105%

// query viability at 28.5 h, 10 µM value for entry CSCCCNC(=O)c1ccc(-c2ccoc2)nc1
99%

For the molecule shown here, CC(C)(C)NC(=O)COc1ccc(CNCc2ccccn2)cc1 [CBK268420C] , give the reported viability at 28.5 h, 10 µM.
95.5%

Can you share its viability at 28.5 h, 10 µM? I mean this molecule: CC[C@@H](Cn1ncc2ccccc2c1=O)NC(=O)C1CCC1
93.4%

Which viability at 28.5 h, 10 µM is listed for O=c1c2ccccc2nc(/C=C/c2cccnc2)n1Cc1ccccc1 ?
106%

Quick one: viability at 28.5 h, 10 µM for CC(C)(C)C(=O)c1cnc2sc3ccccc3n12 ?
91.6%

----------
test name: in vitro
condition description: human, hela cells, % viability
Please provide measured viability at 28.5 h, 10 µM for the entries that follow.
Please state the figure in %; there is no need to write the unit.

Give its viability at 28.5 h, 10 µM value. Item: Nn1c(SCC(=O)Nc2ccc3c(c2)oc2ccccc23)nnc1-c1ccc(Cl)cc1Cl
91.7

Entry under review: Cc1cc(C)c(NC(=O)CSCC(=O)Nc2ccc3ccccc3c2)c(C)c1 . Reported viability at 28.5 h, 10 µM?
100

Can you look up the measured viability at 28.5 h, 10 µM of CCC1CCCCN1C(=O)c1ccc(C)c(Br)c1 (stereo not shown) for me?
100

Can you share its viability at 28.5 h, 10 µM? I mean this compound: Cc1ccc(-c2nnc(CNC(=O)Cc3ccc(F)cc3)o2)s1
91.3

Param item = c1cncc(-c2nnc([C@H]3CCNC3)o2)c1 ; retrieve measured viability at 28.5 h, 10 µM.
103

Fill in the blank: the reported viability at 28.5 h, 10 µM of CCCN(CCC)CCc1cccc2c1CCN2C(=O)c1cc2ccccc2s1 [CBK017871C] is ____.
93.2

I'd like to know its viability at 28.5 h, 10 µM. The compound in question is COC(=O)c1ccccc1NC(=O)CSc1nnc(-c2ccncc2)[nH]1
96.4

----------
Task for the reader: assign each of the following compounds its reported viability at 28.5 h, 10 µM.
test name: in vitro
condition description: human, hela cells, % viability
Don't forget the unit after the number, please.

Could you share which viability at 28.5 h, 10 µM value was measured for Cc1ccc2nc(CNC(=O)N(C)CCc3c(C)n[nH]c3C)cn2c1 [CBK306984] ?
81.1%

Request the reported viability at 28.5 h, 10 µM associated with N#C/C(=C\c1ccc(N2CCN(c3ccc(F)cc3)CC2)c([N+](=O)[O-])c1)c1nn(-c2ccccc2)c(N)c1C#N [CBK267927]
95.7%

Entry CCN(CC(=O)N1CCN(Cc2ccc3c(c2)OCO3)CC1)S(=O)(=O)c1ccccc1 [CBK269436] has what viability at 28.5 h, 10 µM?
92.3%

Dear colleague, I am looking for the recorded viability at 28.5 h, 10 µM of the following compound: CC(C)Nc1nc2cc(Cl)c(Cl)cc2nc1Sc1cccc(O)c1 [CBK093732]
94.8%

Quick one: viability at 28.5 h, 10 µM of CC(=O)N1CCc2nc(C)nc(NCCn3cccc3)c2CC1 [CBK307130] ?
83.7%

Quick one: viability at 28.5 h, 10 µM of Cc1cc(NC(=O)c2nn(-c3nc4ccccc4s3)c3ccccc23)no1 [CBK048489] ?
95.4%

# input compound: COc1ccc(CC(=O)NC(CCSC)c2nnc3ccccn23)cc1 (stereo not shown) [CBK306077] ; wanted: its viability at 28.5 h, 10 µM
96%

What value of measured viability at 28.5 h, 10 µM is listed for CC(C)NC(=O)C[C@@H]1c2nc(-c3ccccc3)sc2C[C@@H]2[C@](C)(CO)[C@H](O)CC[C@]21C [CBK289570] ?
90.6%

I would be grateful if you could share the reported viability at 28.5 h, 10 µM for OCc1ncccc1OCCOC1CCCCO1 (stereo not shown) [CBK045702] .
97.5%

Param item = CN1CCC(N2CC[C@H](c3nnc(-c4cncn4C)o3)C2)CC1 [CBK289403] ; retrieve measured viability at 28.5 h, 10 µM.
117%

// returns reported viability at 28.5 h, 10 µM for input CN(C)CCNc1nc(-c2cccc3ncccc23)cnc1N [CBK063693]
102%

Looking for the measured viability at 28.5 h, 10 µM of Cc1ccc(-c2nc3ncc(C#N)c(N)n3n2)cc1 [CBK288153] , can you help?
106%

Need viability at 28.5 h, 10 µM, item COc1ccc(-n2c(C)c(C#N)c3cc(Br)c(O)c(Br)c32)cc1 [CBK101113]
91.6%

State the recorded viability at 28.5 h, 10 µM for this entry: CC(C)(C)C1CCC(OCC(O)CN2CCN(CCO)CC2)CC1 (stereo not shown) [CBK278263C]
89.8%

Can you share its viability at 28.5 h, 10 µM? I mean this compound: O=C(c1ccco1)N1CCN(c2cncc(-c3cccs3)n2)CC1 [CBK065518]
114%

What does the record list as viability at 28.5 h, 10 µM for CC(C)CC(=O)N[C@@H](C)Cn1nc(-c2cccs2)oc1=O [CBK284336] ?
82.4%

Cited source for all entries: paper PMC12040169
